system: K4 kissing-loop RNA reporter; assay: apparent KD of K4 kissing-loop reporter; higher = weaker reporter binding; settings: Eterna round: R107; input ligand: FMN 200 uM;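 also: bound reporter read as fluorescence of individual clusters on recovered sequencing chips by microscopy, with normalized cluster intensities fitted with a binding model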
apparent KD of K4 kissing-loop reporter below 400 nM gives class 0; apparent KD of K4 kissing-loop reporter at or above it gives class 1.

Reported apparent KD of K4 kissing-loop reporter at or above 400 nM? AAAAUUAAGGCCGAAUUAACUUCUUGCAUACGAGGACCGGUACGGCCGCCACUCGAGUCAAGUGAUGUUUGACAAUCUAUUAUUA [JR_ExcTryptoA_Sub010]
class 0

Identify whether the reported apparent KD of K4 kissing-loop reporter of the following sequence is 400 nM or greater: GGACCUCAGUGAUGUUGAGGUAACGCUGAUACCAGUGACUUAAUUCGCCCUUGGCAGCAGUCCACCGAGGUAUCUGAUUAGGUCU [Default title]
class 0

Reported apparent KD of K4 kissing-loop reporter at or above 400 nM? GGCACGGUGGCGCGACUGCCGUGCGCUUGGGAGGAUAUGUUUCGUGACAGAAGGCCCAGUGAUGUUGGGUCUGUUCAAAAGGACU [Gegearer]
class 0

Is apparent KD of K4 kissing-loop reporter at least 400 nM? Consider UGGAUAUAGUGAUGUUAUAUAGAGAUGGAUACCAGCGAAGAGAAUUGCCCUUGGCAGCCGAAAGAAGUAUCAUUAGAGAAGAAUG [ExTheophyl.Ah]
class 0

Test whether the sequence AUUCUAUGGAGUGAUGUUCCUGUGAUGUCACGAGGACCGGUACGGCCGCCACUCGAUGUAUUGGUUUUUGAAAGAAACAACUGCA [Same State-Tryptophan A] records apparent KD of K4 kissing-loop reporter of 400 nM or higher.
class 1

// inclusive: apparent KD of K4 kissing-loop reporter at least 400 nM? input: AGUGGUGUUGUGUUAUGUUUGGGAAGUGAUCGAGGACCGGUACGGCCGCCACUCGAGUGAUGAGUGAGUGAUGUUUGUUUAGGGA [whbob_SS_Tryp_A_m10]
class 1
